Hello, the source for this data is patent US8674113B2, in case you need it.

- System Under Test: recombinant human mPGES-1 (Homo sapiens (Human))
- Sequence (O14684 whole entry): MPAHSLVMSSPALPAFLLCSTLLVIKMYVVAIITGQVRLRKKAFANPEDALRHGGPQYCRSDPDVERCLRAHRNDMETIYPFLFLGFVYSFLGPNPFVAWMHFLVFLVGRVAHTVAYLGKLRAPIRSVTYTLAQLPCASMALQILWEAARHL
- Measurement Notes: mPGES-1 enzyme assay (HTRF detection of PGE2)
- Assay type: biochemical
- Test Parameters: recombinant human mPGES-1 microsomes, PGH2 2 μM, 60 seconds; read-out: mPGES-1 inhibitory effect IC50 in the enzyme assay
Item-by-item account of IC50
Experimental Readout: IC50 (nM)

{"columns": ["Sample Smiles", "System Under Test", "Experimental Readout", "Experimental Result"],
 "data": [
  ["Cn1c(Nc2c(Cl)ccc(CNC(=O)[C@@](C)(O)C(F)(F)F)c2Cl)nc2cc(C(=O)N[C@H]3CC[C@H](C(F)(F)F)CC3)c(N3CCC(C(F)(F)F)CC3)cc21", "recombinant human mPGES-1 (Homo sapiens (Human))", "IC50", 3.9],
  ["Cn1c(Nc2c(Cl)ccc(CNC(=O)C(C)(C)C)c2Cl)nc2cc(C(=O)Nc3nnc(C(C)(C)C)s3)c(N3CCC(C(F)(F)F)CC3)cc21", "recombinant human mPGES-1 (Homo sapiens (Human))", "IC50", 3],
  ["Cn1c(Nc2c(Cl)ccc(CNC(=O)C(C)(C)C)c2Cl)nc2cc(C(=O)N[C@H]3CC[C@H](C(F)(F)F)CC3)c(N3CCC4(CC4)C3)cc21", "recombinant human mPGES-1 (Homo sapiens (Human))", "IC50", 3]
]}
